Target: T1, human beta-Klotho (KLB) (human, UniProt Q86Z14 53-997);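 also: Anti-KLB antibodies captured on anti-human Fc CM5 chip, KLB injected as analyte, 180 s association and 1800 s dissociation, fitted to 1:1 binding model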
T1 construct: bought protein; also called human KLB
T1 sequence (looked up): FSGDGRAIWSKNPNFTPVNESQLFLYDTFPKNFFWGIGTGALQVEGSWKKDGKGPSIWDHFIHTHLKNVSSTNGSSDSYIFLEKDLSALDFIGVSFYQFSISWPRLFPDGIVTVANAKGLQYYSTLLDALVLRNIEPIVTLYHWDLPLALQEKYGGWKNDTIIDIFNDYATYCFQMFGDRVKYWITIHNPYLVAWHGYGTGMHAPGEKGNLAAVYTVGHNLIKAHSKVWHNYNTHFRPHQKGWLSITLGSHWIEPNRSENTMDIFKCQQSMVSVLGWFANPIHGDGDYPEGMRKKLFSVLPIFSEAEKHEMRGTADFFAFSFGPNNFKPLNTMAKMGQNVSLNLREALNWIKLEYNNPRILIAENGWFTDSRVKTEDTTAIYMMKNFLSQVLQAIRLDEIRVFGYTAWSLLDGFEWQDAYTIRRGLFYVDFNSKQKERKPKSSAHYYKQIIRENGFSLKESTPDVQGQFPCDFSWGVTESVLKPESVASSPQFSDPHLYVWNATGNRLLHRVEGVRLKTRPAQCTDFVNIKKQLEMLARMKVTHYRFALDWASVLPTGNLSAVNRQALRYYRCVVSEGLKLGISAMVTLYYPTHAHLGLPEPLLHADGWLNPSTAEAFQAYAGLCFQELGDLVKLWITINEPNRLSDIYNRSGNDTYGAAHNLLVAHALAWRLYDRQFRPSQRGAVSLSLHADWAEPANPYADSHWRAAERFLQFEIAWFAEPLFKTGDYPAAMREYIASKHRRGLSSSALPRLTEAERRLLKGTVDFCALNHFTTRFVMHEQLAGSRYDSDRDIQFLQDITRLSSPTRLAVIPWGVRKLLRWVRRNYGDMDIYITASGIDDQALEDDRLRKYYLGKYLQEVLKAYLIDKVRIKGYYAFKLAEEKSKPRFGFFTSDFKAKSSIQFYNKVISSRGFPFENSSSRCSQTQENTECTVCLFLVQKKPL
Assay: SPR
quantity: koff (s⁻¹)
Numbers only, in s⁻¹.

Guide cases for koff, answers given:
1) Ab0314 (antibody, IgG4, V domains shown, IgG4 PE) VH: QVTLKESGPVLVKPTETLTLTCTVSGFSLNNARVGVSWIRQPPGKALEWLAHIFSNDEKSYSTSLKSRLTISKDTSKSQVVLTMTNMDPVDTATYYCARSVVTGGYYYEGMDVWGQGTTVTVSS VL: SYVLTQPPSVSVAPGQTARITCGGSNIGSESVHWYQQKPGQAPVLVVYDDSDRPSGIPERFSGSNSGNTATLTISRVEAGDEADYYCQVWTGESDHVVFGGGTKLTVLG: 0.000402
2) Ab0364 (antibody, IgG4, V domains shown, IgG4 PE) VH: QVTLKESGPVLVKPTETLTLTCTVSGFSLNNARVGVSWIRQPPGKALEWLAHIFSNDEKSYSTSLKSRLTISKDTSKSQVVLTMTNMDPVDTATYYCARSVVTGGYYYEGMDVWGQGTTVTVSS VL: SYVLTQPPSVSVAPGQTARITCGGANIGSESVHWYQQKPGQAPVLVVYEESDRPSGIPERFSGSNSGNTATLTISRVEAGDEADYYCQVWEGSSDHVVFGGGTKLTVLG: 0.00169

Next binder, koff to be filled in.
Query: I'd like to know its koff. The binder in question is Ab0298 (antibody, IgG4, V domains shown, IgG4 PE) VH: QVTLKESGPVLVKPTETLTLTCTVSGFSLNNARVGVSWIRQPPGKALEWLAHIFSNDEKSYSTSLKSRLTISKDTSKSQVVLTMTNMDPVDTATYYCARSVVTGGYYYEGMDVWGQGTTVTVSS VL: SYVLTQPPSVSVAPGQTARITCGGSNIGSESVHWYQQKPGQAPVLVVYYESDRPSGIPERFSGSNSGNTATLTISRVEAGDEADYYCQVWDGNSDHVVFGGGTKLTVLG
Response: 0.0016
